- System: H9c2 cardiomyocytes, 2-deoxyglucose stress, ATP luminescence, 2 h
- Method Summary: H9c2 cell survival under 2-deoxyglucose stress – uHTS hits, dose response (AID 588780)
Activity calls are given as the source filed them.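 The calls were made as follows: active = compounds whose fitted half-maximal concentration in the cell-protection dose series is at or below a set limit; inactive = the rest.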
Record form. Attribute: IC50. Fill in for each entry.

The reported H9c2 cardiomyocytes, 2-deoxyglucose stress, ATP luminescence, 2 h IC50 of O=C(NCC(=O)N(Cc1cccs1)C(C(=O)NC1CCCCC1)c1ccco1)c1ccco1 (stereo not given) is 15.5 µM

# lookup: Cc1cccc(NC(=O)COc2cccc3c2CCNC3=O)c1 on H9c2 cardiomyocytes, 2-deoxyglucose stress, ATP luminescence, 2 h, IC50 = > 79 µM (inactive)

Given the compound COc1ccc(CCn2c(=O)c3cccnc3n(Cc3ccc([N+](=O)[O-])cc3)c2=O)cc1OC and test system H9c2 cardiomyocytes, 2-deoxyglucose stress, ATP luminescence, 2 h, the measured IC50 is 10.1 µM

The reported H9c2 cardiomyocytes, 2-deoxyglucose stress, ATP luminescence, 2 h IC50 of CCn1c(/C=N/NC(=O)c2ccc(OC)cc2)nc2ccccc21 is > 79 µM (inactive)

GET /values?item= O=C(CCc1nc2ccccc2c(=O)[nH]1)N1CCN(S(=O)(=O)c2ccccc2Br)CC1 &system= H9c2 cardiomyocytes, 2-deoxyglucose stress, ATP luminescence, 2 h returns IC50: > 79 µM (inactive)

Measured IC50 (H9c2 cardiomyocytes, 2-deoxyglucose stress, ATP luminescence, 2 h), entry CC(=O)Nc1cc(-c2ccccc2)cn2c(-c3cccc(C(C)=O)c3)cnc12 : 17.8 µM

Item: COc1ccc2[nH]c(=O)c(-c3nnn(-c4ccc(F)cc4)n3)cc2c1 | System: H9c2 cardiomyocytes, 2-deoxyglucose stress, ATP luminescence, 2 h | IC50: > 79 µM (inactive)

Sample COc1cc(/C=N/NC(=O)c2cccnc2)ccc1OS(=O)(=O)c1ccc(F)cc1 , system: H9c2 cardiomyocytes, 2-deoxyglucose stress, ATP luminescence, 2 h. Its IC50 is 14.1 µM

IC50 of O=C1OCCN1C(=O)[C@H]1[C@H](c2ccc([N+](=O)[O-])cc2)C(c2ccc(F)cc2)=NN1c1ccc(Br)cc1 , assay on H9c2 cardiomyocytes, 2-deoxyglucose stress, ATP luminescence, 2 h, is 6.03 µM

Entry O=C(NCc1ccc2c(c1)OCO2)c1n[nH]c(=O)c2ccccc12 , tested on H9c2 cardiomyocytes, 2-deoxyglucose stress, ATP luminescence, 2 h, has a reported IC50 of > 79 µM (inactive)

The measured IC50 that O=C(Nc1cccnc1)c1sc(Nc2ccccc2)nc1-c1ccccc1 showed for H9c2 cardiomyocytes, 2-deoxyglucose stress, ATP luminescence, 2 h is > 79 µM (inactive)

Test item O=C(Nc1nc(-c2ccc(S(=O)(=O)N3CCCC3)cc2)cs1)C1COc2ccccc2O1 (stereo not given) ; H9c2 cardiomyocytes, 2-deoxyglucose stress, ATP luminescence, 2 h; reported IC50 was > 79 µM (inactive)

Record COc1cc(-c2cnc3c(NC=O)cc(-c4cccc(NC(C)=O)c4)cn23)cc(OC)c1OC / H9c2 cardiomyocytes, 2-deoxyglucose stress, ATP luminescence, 2 h, IC50 recorded as > 79 µM (inactive)

The observed IC50 for Cc1c(NC(=O)Cn2[nH]c(=O)c3ccccc3c2=O)c(=O)n(-c2ccccc2)n1C when tested with H9c2 cardiomyocytes, 2-deoxyglucose stress, ATP luminescence, 2 h stands at > 79 µM (inactive)

The observed IC50 for Cc1cnc(C=O)c2cccc([N+](=O)[O-])c12 when tested with H9c2 cardiomyocytes, 2-deoxyglucose stress, ATP luminescence, 2 h stands at 44.6 µM (inactive)

Form field, IC50 with H9c2 cardiomyocytes, 2-deoxyglucose stress, ATP luminescence, 2 h, item O=C(CCc1nc2ccccc2c(=O)[nH]1)NNC(=O)c1ccc(F)cc1 : > 79 µM (inactive)

# COc1cc(C(=O)Nc2cc3c(cc2N2CCCCC2)n(C)c(=O)n3C)cc(OC)c1OC with H9c2 cardiomyocytes, 2-deoxyglucose stress, ATP luminescence, 2 h: IC50 is 25.4 µM

// IC50 (H9c2 cardiomyocytes, 2-deoxyglucose stress, ATP luminescence, 2 h) for CCOC(=O)c1c2c3c(cccc3n(C)c1=O)C(=O)c1ccccc1-2 = > 79 µM (inactive)

Record for NS(=O)(=O)c1cccc(NC(=O)COC(=O)Cc2n[nH]c(=O)c3ccccc23)c1 under target or system H9c2 cardiomyocytes, 2-deoxyglucose stress, ATP luminescence, 2 h: IC50 reported as > 79 µM (inactive)

H9c2 cardiomyocytes, 2-deoxyglucose stress, ATP luminescence, 2 h data for Cc1cc(C)c(C)c(S(=O)(=O)N2CCN(C(=O)c3cc(=O)[nH]c4ccccc34)CC2)c1C ; its IC50: > 79 µM (inactive)

These measurements were taken from PubChem BioAssay AID588780.
